Entry source: patent US20040018500A1

Consider the following molecules and their measured pointedLeaves (Dev.) readings.
tested on: Arabidopsis thaliana plants; test: SOA1 phenotypic analysis of herbicide-treated Arabidopsis plants; format: in vivo; conditions: numeric value standardized to mock treated tissues
Give only the figure.

Answered cases to consult:
{"columns": ["molecule", "pointedLeaves (Dev.)"],
 "data": [
  ["C[n+]1ccc(-c2cc[n+](C)cc2)cc1", 1],
  ["CP(=O)(O)CCC(N)C(=O)O (stereo not drawn) [Glufosinate]", 1],
  ["CN(C)C(=O)Nc1ccc(Cl)c(Cl)c1", 1],
  ["c1cc[n+]2c(c1)-c1cccc[n+]1CC2", 1]
]}

Q: Consider the molecule O=C(O)CNCP(=O)(O)O [Glyphosate] and give its measured pointedLeaves (Dev.).
Result: 1

Q: Subsequent entry: O=C(O)COc1ccc(Cl)cc1Cl
Result: 0

----------
Listed next: entries and their corresponding tMic (Dev.).
tested on: Arabidopsis thaliana plants; experiment: SOA1 phenotypic analysis of herbicide-treated Arabidopsis plants; assay type: in vivo; settings: score for time to full symptoms at minimum inhibitory concentration

Q: Fill in the recorded tMic (Dev.) for this compound, with Arabidopsis thaliana plants as test system: c1cc[n+]2c(c1)-c1cccc[n+]1CC2
Result: 2

Q: # repeat for C[n+]1ccc(-c2cc[n+](C)cc2)cc1
Result: 2

Q: Now the same for O=C(O)COc1ccc(Cl)cc1Cl
Result: 2

----------
Listing of entries alongside the reported newLeafNecrosis (Dev.).
system: Arabidopsis thaliana plants; assay: SOA1 phenotypic analysis of herbicide-treated Arabidopsis plants; format: in vivo; settings: numeric value standardized to mock treated tissues

{"columns": ["compound", "newLeafNecrosis (Dev.)"],
 "data": [
  ["CN(C)C(=O)Nc1ccc(Cl)c(Cl)c1 [Diuron]", 4],
  ["O=C(O)CNCP(=O)(O)O [Glyphosate]", 0],
  ["O=C(O)COc1ccc(Cl)cc1Cl [2,4-D]", 0],
  ["CP(=O)(O)CCC(N)C(=O)O (stereo not drawn) [Glufosinate]", 0],
  ["c1cc[n+]2c(c1)-c1cccc[n+]1CC2 [Diquat]", 4]
]}

Consider the record given below.
Q: Quick check: newLeafNecrosis (Dev.) of C[n+]1ccc(-c2cc[n+](C)cc2)cc1 [Paraquat] ?
Result: 4

----------
test system: Arabidopsis thaliana plants; experiment: SOA1 phenotypic analysis of herbicide-treated Arabidopsis plants; format: in vivo; conditions: numeric value standardized to mock treated tissues
test_readout: newLeafAnthocyanins (Dev.)

Worked examples follow.
{"columns": ["molecule", "result"],
 "data": [
  ["CP(=O)(O)CCC(N)C(=O)O (stereo not drawn) [Glufosinate]", 0],
  ["O=C(O)COc1ccc(Cl)cc1Cl [2,4-D]", 0]
]}

Q: What reported newLeafAnthocyanins (Dev.) corresponds to C[n+]1ccc(-c2cc[n+](C)cc2)cc1 [Paraquat] on Arabidopsis thaliana plants?
Result: 0

Q: Now try O=C(O)CNCP(=O)(O)O [Glyphosate] .
Result: 1

Q: # repeat for c1cc[n+]2c(c1)-c1cccc[n+]1CC2 [Diquat]
Result: 0

----------
system: Arabidopsis thaliana plants; test: SOA1 phenotypic analysis of herbicide-treated Arabidopsis plants; format: in vivo; conditions: score for time to full symptoms at minimum inhibitory concentration
Recorded tMic (Dev.) by entry
Quick one: just the number, no unit, thanks!

Q: Quick one: tMic (Dev.) of CP(=O)(O)CCC(N)C(=O)O (stereo not drawn) [Glufosinate] ?
Result: 1

Q: Try this compound too: CN(C)C(=O)Nc1ccc(Cl)c(Cl)c1
Result: 1

Q: Further, for O=C(O)CNCP(=O)(O)O [Glyphosate] ?
Result: 2
